targetOfAssay: CaMKII (Rattus norvegicus)
Construct: purchased New England Biolabs
Sequence (P11275 1-325 limits assumed): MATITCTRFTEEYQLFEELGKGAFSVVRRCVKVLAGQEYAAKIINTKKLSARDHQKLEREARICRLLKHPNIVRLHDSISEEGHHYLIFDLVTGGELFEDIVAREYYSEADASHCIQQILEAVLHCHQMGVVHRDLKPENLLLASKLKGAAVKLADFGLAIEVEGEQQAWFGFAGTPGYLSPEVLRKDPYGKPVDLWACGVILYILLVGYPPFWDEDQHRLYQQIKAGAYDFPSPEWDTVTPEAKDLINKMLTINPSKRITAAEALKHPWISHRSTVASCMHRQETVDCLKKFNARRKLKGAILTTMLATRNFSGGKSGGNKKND
testDetails: Reconstituted enzyme assay, CaMKII
Assay type: biochemical
assayConditions: γ-[32P]-ATP, synthetic peptide substrate; mean ± SEM; read-out: IC50 CaMKII
pIC50: −log10 of the molar value.

{"molecule": "N=c1cc2c(nn1CCCCCCCCCCC(=O)N1CCN(c3ncccn3)CC1)-c1ccccc1CC2 [MW01-070C]", "targetOfAssay": "CaMKII (Rattus norvegicus)", "pIC50": 5.01}

---

targetOfAssay: protein kinase C (PKC)
testDetails: Reconstituted enzyme assay, PKC
Format: biochemical, rat
assayConditions: Table 6; read-out: Inhibition KC
pIC50: −log10 of the molar value.
Each entry below carries its reported pIC50.

{"compound": "N=c1cc2c(nn1CCCCCCCCCCC(=O)Nc1ccc(-c3ccccc3)nn1)-c1ccccc1CC2 [MW01-026Z]", "targetOfAssay": "protein kinase C (PKC)", "pIC50": "< 4.00"}
{"compound": "N=c1ccc(-c2ccccc2)nn1CCCCCCCCCCC(=O)Nc1ccc(-c2ccccc2)nn1 [MW01-125AZ]", "targetOfAssay": "protein kinase C (PKC)", "pIC50": "4.30 to 4.70"}
{"compound": "N=c1cc2c(nn1CCCCCCCCCCC(=O)Nc1cc3c(nn1)-c1ccccc1CC3)-c1ccccc1CC2 [MW01-055V]", "targetOfAssay": "protein kinase C (PKC)", "pIC50": "4.00 to 4.30"}
